- assay: yeast display, Sf9 membrane polyspecificity reagent, FACS + sequencing; frameworks hold sequencing errors
reported.metric: polyreactivity (PSR sort gate)

chain | reported.metric | value.reported
QVQLVESGGGLVQAGGSLRLSCAASGRSFWKYAMGWCRQAPGKERELVAAITSDGSTYYADSVKGRFTISRDNAKNTVYFQMNSLKPEDTADYYCAAQQWFEYDYWGQGTQVTVSS | polyreactivity (PSR sort gate) | low polyreactivity
QVQLVESGGGLVHAGGSLRLSCAASGFIFGINAMGWYRQAPGKERELVATITSGGGTNYADSVKGRFTISRDNAKNTVYLQMKSVKPEDTAVYYCADEDDYIYFYLSMDYWGQCTQVTVSS | polyreactivity (PSR sort gate) | low polyreactivity
QVQLVESGGGLVQAGGSLRLSCAASGFTCTRYAMGWYRQAPGKERELVATITGGGRTNYADSVKGRFTISRDNAKNTVYLQMNSLKPEDTADYYCNAKYRVYWGSGKFDYWGQGSQVTVSS | polyreactivity (PSR sort gate) | high polyreactivity
QVQLVESGGGLVQAGGSLRLSCAASGRIFYSYAMGWYRQAPGKERELVAVITYRGGRTYYADSVKGRFTISRDNAKNTVYLQMNSLKPEDTAVYYCARDPQFYLHTVTDGAYNYWGQGTQVTVSS | polyreactivity (PSR sort gate) | low polyreactivity
QVQLVESGGGLVQAGGSLRLSCAASGITFYVYALGWYRQAPGKARALVAANNYDSGSTYYADSEKGRFTISRDNAKNTVYIQKNSLKPEDTAGYYCATDGVNPFYAYDYWGQGTQVTVSS | polyreactivity (PSR sort gate) | low polyreactivity
QVQLVESGGGLVQAGCSHRLSCSSTGRTFYIYDMGRYRQAPGKERELVAVISWSGGDTNYADSVKGRFRISRDNAKNTVYLQMNSLKPEDTAVYYCAATRRDRRKSFTYRYDYWGQGTQVTVSS | polyreactivity (PSR sort gate) | high polyreactivity

Entry under test: QVQLVESGGGLVQAGGSLRLSCAASGFISYYYAMGWYRHAPGKEREFVAAITSSGGSTRYADSVKGCFTISRDNAKNTVYLQMNSLKPEDTAVYYCAAGNPYFWPYDYWGQGTQVTVSS . Its polyreactivity (PSR sort gate) was low polyreactivity

Entry under test: QVQLVESGGGLVQAGGSLRLSCAASGSIFRKYTMGWYRQAPGKERELVAAISRIGGSTYYADSVKGRFTISRDNAKNTVYLQMNSLKPEDTAVYYCAKRGPRSYFQPWYDYWGQGTQVTVSS . Its polyreactivity (PSR sort gate) was high polyreactivity

Entry under test: QVQLVESAAGLVQAGGSLRLSCAPSGSTFYLYDMGWYRQAPGKEREFVATITSGTSTTYADSVKGRFTISRDNAKNTVYLQMNSLKPEDTAVYYCNATDVGIITVGYGHGGYYWGQGTQVTVSS . Its polyreactivity (PSR sort gate) was low polyreactivity

Entry under test: QVQLVESGGGLVQAGGSLRLSCAASGITFKWNDMGWYRQAPGKEREFVAAITGSTGSTFYADSVKGRFTISRDNAKNTVYLQMISLKPEDTAVYYCAAGPWFYYWGQGTQVTVSS . Its polyreactivity (PSR sort gate) was low polyreactivity

Entry under test: QVQLVESGGGLVQAGGSLRLSCAASGRTFLYNAMGWYREAPGTERELVAAISTNGSSTYYADSVKGRFTISRDNAKNTVYLQMNSLKPEDTAVYYCAAQPPLDYEFPYRYGYWGQGTQVTVSS . Its polyreactivity (PSR sort gate) was low polyreactivity

----------
- assay: yeast display, Sf9 membrane polyspecificity reagent, FACS + sequencing; frameworks hold sequencing errors

chain | polyreactivity (PSR sort gate)
QVQLVETGGGLVQAGGSLRLSCAASGFTIQRYAMGWYRQAPGKEREFVAAITSGGSTYYADSVKGRFTISRDNAKNTVYLQMNSLKPEDTAVYYCATRAVWSSWGRRYDSWGQGTQVTVSS | high polyreactivity
QVQLVESVGGLVQAGGSLRLSCAASGLILRFYAMVWYRQAPGKERELVAAISRNGGSTYYADSVKGRFTISRDNAKNTVYLQMNSLKPEDTAVYYCAVEYYVSWKLDYWGQGTQVTVSS | high polyreactivity

----------
- assay: yeast display, Sf9 membrane polyspecificity reagent, FACS + sequencing; frameworks hold sequencing errors
reported.metric: polyreactivity (PSR sort gate)

Below are worked cases with known answers.
chain | reported.metric | value.reported
QVQLVDSGGGLVQAGGSLRLSCAASGFIFDTNVMGWYRQAPGKERELVAAISWDVDSTYYADSVKGRFTISRDNAKNTVYLQMNSLKPEDTAVYYCATETFDYYGLAGEYWGQGTQVTVSS | polyreactivity (PSR sort gate) | high polyreactivity
QVQLVESGGGLVQAGGSLRLSCAASGRIFRPNTMGWYRQAPGKERELVAAISRSGGSTYYADSVKGRFTISRDNAKNTVYLQMNSLKPEDTAVDYCAKRYGGIVGVGANKYEYWGQGTQVTVAS | polyreactivity (PSR sort gate) | high polyreactivity
QVQLVESGGGLVQAGGTLRLSCAASGRTFNYAMGWYRQAPGKERELVATITSGGSTNYADSVKGRFTISRDNAKNTVYLQLNSLKPEDTAVYYCNRDIPPGNYYKALYYYWGQGTQVTVSS | polyreactivity (PSR sort gate) | low polyreactivity
QVQLVESGGGLVQAGGSLRLSCAASGFIFKPNAMGWYRQAPGKERELVAAITWGGDNTYYADSVKGRFTISRDNAKNTVYLQMNSLKPDDTAVYYCAAEWKFHSDASYIYDYWGQGTQVTVSS | polyreactivity (PSR sort gate) | high polyreactivity

Consider the record given below.
Entry under test: QVQLVESGGGLVQAGGSLRLSSADSGRTFWDNTMGWYRQAPGKERELVAAISGGDSTYYADSVKGRFTISRDNAKNTVYLQMNSLKPEDTAVYYCAAAYATPTLYYYWGQGTQVTVSS . Its polyreactivity (PSR sort gate) was low polyreactivity

----------
- assay: yeast display, Sf9 membrane polyspecificity reagent, FACS + sequencing; frameworks hold sequencing errors
reported.metric: polyreactivity (PSR sort gate)

Below are worked cases with known answers.
chain | polyreactivity (PSR sort gate)
QVQLVESGGGLVQAGGSLRLSCAASGFTFDYYAMGWYRQAPGKERELVAAISSSGGSTYYADSVKGRFTISRDNAKNTVYLQMNSLKPADTAVYYCGTGHSKKYDYWGQGTQVTVSS | high polyreactivity
QVQLVESVGGLVQAGGSLRLSCAASGRIFEVYVMGWYRQAPGKERELVAAISTGGSTYYADSVKGRFTISRDNAKNTVYLQMNSLKPEDTAVYYCAARKTRRYGSGHDYWGQGTQVTVSS | high polyreactivity
QVQLLESGGGLVQAGGSLRLSCAASGLTYAYNTMGWYRQAPGKERELVADISWSGGRTYYADSVKGRFTISRDNAKNTVYLQMNSLKPEDTAVYYCAAEFWHQYGAYDYWGQGTQVTVSS | low polyreactivity
QVQLVESGGGLVQAGGSLRLSCAASGSIFSTYAMGWYRQAPGKERELVAAISGSGGSTYYADSVKGRFTISRDNAKNTVYLQMNSLKPEDTAVYYCNRLPYVSSAYVGLGYWGQGTQVTVSS | high polyreactivity
QVQLVESGGGLVQAGGSLRLSCAASGFTFTRNAMGWYRQAPGKERELVAAINFRSDRTFYADSVKGRFTISRDNAKNTVYLQMNSLKPEDTAVYYCAAQVGRGYEVYPVYKYGYWGQGTQVTVSS | high polyreactivity

Entry under test: QVQLVESGGGLVQAGGSLRLSCAASGFIFRYYAMGWYRQAPGKERELVAAISGSGGGTYYADSVKGRFTISRDNAKNTVYLQMNSLIPEDTAVYYCAATWTQPQPGYYPYYYWGQGTQVTVSS . Its polyreactivity (PSR sort gate) was high polyreactivity

Entry under test: QVHLVESGGGLVQAGGSLRLSCAASGSTFKIYAMGWYRQAPGKERELVAAITRGGSTNYADSVKGRFTISRDNAKNTVYLQMNSLKPEDTAVYYCAASYWYRRYGTYTYDYWGQGTQVTVSS . Its polyreactivity (PSR sort gate) was high polyreactivity

Entry under test: QVQLVESGGGLVQAGGSLRLSCAASGRIFSFNTMGWYRQAPGKEREFVATIRYSGGSTYADSVKGRFTISRDNAKNTVYLQMNSLKPEDTAVYYCAAAWWSYKFNRDFDYWGQGTQVTVSS . Its polyreactivity (PSR sort gate) was low polyreactivity

Entry under test: QLQLVESGGALVQAGGSLRLSCAASGFTFSRNVMGWYRQAPGKERELVAAISSGSTYYADSVKGRFTISRDNAKKTVYLQMNSLKPEDTAVYYCAKRGRLRNYDYWGQGTKVTVSS . Its polyreactivity (PSR sort gate) was high polyreactivity

Entry under test: QVHLVESGGGLVQSGGSLRLRCAASGSTFYGYTKAWYRQAPGKERELVAAINWSGTRTYYADSVNGRFTISRDTAKNTVYLQMNSLKPEDTAVYYCAAERYYWGLGTQVTVSS . Its polyreactivity (PSR sort gate) was high polyreactivity

Entry under test: QVQLVETGGGIVQAGVSLRISCASSGRTFRWYAMGWSRQSPGKERELVAAITSGGGTYYADSVKGLFTISRDYAKNTVYLQMNRLKREDTAVYYCNKLHRDRYDYWGQGTQVTVSS . Its polyreactivity (PSR sort gate) was high polyreactivity
